test: Nitrite content (ion chromatography; LC-FLD with DAN derivatisation; Griess test) in drug substance, intermediates, reagents, solvents, filters, excipients; type: physicochemical; conditions: laboratory use test, salt formation B10 to B12 with filter parts added; QLS LJ LC-FLD/DAN
measure-name: Nitrite [ppm]

{"compound": "CN(C)C(=O)c1cc2cnc(Nc3ccc(N4CCNCC4)cn3)nc2n1C1CCCC1.O=C(O)CCC(=O)O [LEE011-cusakal1-033]", "measure-name": "Nitrite [ppm]", "measured-result": "app. 0.3 ppm"}
{"compound": "CN(C)C(=O)c1cc2cnc(Nc3ccc(N4CCNCC4)cn3)nc2n1C1CCCC1.O=C(O)CCC(=O)O [LEE011-cusakal1-036]", "measure-name": "Nitrite [ppm]", "measured-result": "app. 0.3 ppm"}
{"compound": "CN(C)C(=O)c1cc2cnc(Nc3ccc(N4CCNCC4)cn3)nc2n1C1CCCC1.O=C(O)CCC(=O)O [LEE011-cusakal1-034]", "measure-name": "Nitrite [ppm]", "measured-result": "app. 0.2 ppm"}
{"compound": "CN(C)C(=O)c1cc2cnc(Nc3ccc(N4CCNCC4)cn3)nc2n1C1CCCC1 [LEE011-cusakal1-032]", "measure-name": "Nitrite [ppm]", "measured-result": "app. 0.3 ppm"}
{"compound": "CN(C)C(=O)c1cc2cnc(Nc3ccc(N4CCNCC4)cn3)nc2n1C1CCCC1.O=C(O)CCC(=O)O [LEE011-cusakal1-035]", "measure-name": "Nitrite [ppm]", "measured-result": "app. 0.2 ppm"}
